The reported measurements were obtained from ChEMBL document CHEMBL4651402.

protocol notes: in vitro
run parameters: chlorocebus sabaeus, Vero E6 (Vero C1008) cells, CC50
quantity: CC50 at 48 h

Clc1cnn(CCCCN2CCN(c3ncccn3)CC2)c1 | > 100 µM

# map each compound to its CC50 at 48 h
1. Cc1[nH]c(/C=C2/C(=O)Nc3ccccc32)c(C)c1CCC(=O)O
2. CCN(CCO)CCC[C@H](C)Nc1ccnc2cc(Cl)ccc12

> 50.1 µM
> 50.1 µM

----------
Give CC50 at 48 h for every item shown.
protocol notes: in vitro
run parameters: chlorocebus sabaeus, Vero E6 (Vero C1008) cells, CC50
Give bare numbers, in µM.

Answer for every listed entry: what is its CC50 at 48 h? The entries follow.
1. COc1cccc([C@@H](C)NCCCc2ccccc2Cl)c1
2. CN1CCN(CCCN2c3ccccc3Sc3ccccc32)CC1
3. CN(C)CCON=C1c2ccccc2CCc2ccccc21
4. CN1CCC[C@@H](CN2c3ccccc3Sc3ccccc32)C1

28.2
14.6
77.6
11.8

Hello, I would appreciate it if you could give CC50 at 48 h for each entry below.
1. O=C1CC2(CCCC2)CC(=O)N1CCCCN1CCN(c2nsc3ccccc23)CC1
2. Cc1c(-c2ccc(O)cc2)n(Cc2ccc(OCCN3CCCCC3)cc2)c2ccc(O)cc12 [PIPENDOXIFENE]

24.6
4.62

----------
Exercise: for every item that follows, state its recorded CC50 at 48 h.
protocol notes: in vitro
run parameters: chlorocebus sabaeus, Vero E6 (Vero C1008) cells, CC50
Numbers only, in µM.

The cases that follow already have their CC50 at 48 h on record.
CC(=O)N1CCN([C@H]2CCN(C(=O)N(C)[C@H](C)c3cc(C(F)(F)F)cc(C(F)(F)F)c3)[C@@H](c3ccc(F)cc3C)C2)CC1 | 17.8
CNC[C@H]1C[C@@H]2c3ccccc3Cc3ccc(F)cc3[C@H]2O1 | 19.5
CN(C)CC/C=C1/c2ccccc2Sc2ccc(Cl)cc21 | 13.8
CCCCCCC(C)(C)c1cc(O)c2c(c1)OC(C)(C)C1CCC(=O)CC21 (stereo not drawn) | 11.1

Kindly consider the entry below.
Which measured CC50 at 48 h value corresponds to COc1cccc2c1C(=O)c1c(O)c3c(c(O)c1C2=O)C[C@@](O)(C(=O)CO)C[C@@H]3O[C@H]1C[C@H](N)[C@H](O)[C@H](C)O1 ?
64.6

----------
Tested on: SARS-CoV-2
protocol notes: microbe, parasite or virus in culture
Type: functional, organism-based, Chlorocebus sabaeus, Vero C1008
run parameters: Severe acute respiratory syndrome coronavirus 2, Vero C1008, 48 h; read-out: pIC50 (converted)
Field: IC50. Provide a value for each of the molecules that follow.

Consider the following illustrative entries.
Clc1ccc(-c2nn(Cc3ccccc3)c3c2CCNCC3)cc1 [JNJ-18038683 FREE BASE] | > 25.1 µM
NC(CO)(CO)CCc1ccc(Sc2cccc(OCc3ccccc3)c2)cc1Cl | > 100 µM
O=c1[nH]c2ccccc2n1CCCN1CCN(C(c2ccccc2)c2ccccc2)CC1 [OXATOMIDE] | > 100 µM
CN(C)CCCN1c2ccccc2Sc2ccccc21 | > 100 µM
CN(C)C(=O)c1cc2cnc(Nc3ccc(N4CCNCC4)cn3)nc2n1C1CCCC1 | > 100 µM
Nc1nc2nn[nH]c2c(=O)[nH]1 | > 50.1 µM

Alright, here's another molecule for you.
Form field: reported IC50 of Cn1cncc1[C@@](N)(c1ccc(Cl)cc1)c1ccc2c(c1)c(-c1cccc(Cl)c1)cc(=O)n2C
> 100 µM
